System: NCI/ADR-RES ovarian
Experiment: NCI-60 one-dose screen, 48 h (100 = growth as untreated, 0 = no growth, -100 = all killed)
Settings: 10 µM unless noted
Compounds without any hit were thinned out: in the full panel of roughly 83,000, 20% have a hit.
Reported growth values for the following compounds.
Please give a number only; it is taken to be in %.

>  <COMPOUND>
COc1cc(OC)c(S(=O)(=O)NNC(=O)c2ccncc2)cc1C(=O)/C=C/c1ccc(C)cc1

>  <MEASURED_ON>
NCI/ADR-RES ovarian

>  <growth / %>
107

$$$$
>  <COMPOUND>
O=C(c1ccc(O)cc1)C1[C@H](c2ccc(Cl)cc2)[C@@H](c2ccccc2)NC12C(=O)Nc1ccc(Cl)cc12 (stereo not given in full)

>  <MEASURED_ON>
NCI/ADR-RES ovarian

>  <growth / %>
36.2

$$$$
>  <COMPOUND>
Fc1ccc(-c2cc3nc(C(Cl)Cl)nc(-c4ccccc4)n3n2)cc1

>  <MEASURED_ON>
NCI/ADR-RES ovarian

>  <growth / %>
10.6

$$$$
>  <COMPOUND>
O=C(CSc1nccc(=O)[nH]1)Nc1ccc(-c2nc3ccccc3[nH]2)cc1

>  <MEASURED_ON>
NCI/ADR-RES ovarian

>  <growth / %>
111

$$$$

The compound identified as `O=C1/C(=C/C2=Cc3ccccc3OC2)SC(=S)N1c1ccc(F)cc1` registered its growth at 108

Input `C/C(=N/NC(N)=S)c1ccc(Nc2nc(SCC(C)C)nc(-c3ccc(F)cc3)c2C#N)cc1` . Output growth: -14.6

Quick note, growth for `COc1cc(/C=C/C(=O)c2cc(OC)c(OC)c(OC)c2)ccc1OCc1ccc(F)cc1` landed at 20

response.value for `Fc1ccc(-c2cc3nc(C(Cl)Cl)nc(-c4ccc(Cl)cc4)n3n2)cc1` (field: growth) = 20.3

Documented growth of `N#Cc1ccc(/C=N/NC(=O)c2[nH]c3ccc(Br)cc3c2-c2ccccc2)s1` : 9.75

So for `CC(C)(O)c1cncc(-c2ccc3ncnc(N4CCc5cc(F)c(Cl)cc54)c3c2)c1` , the logged growth turned out to be 31.1

// sample `Clc1ccc2c(NCCCN3CCOCC3)c3oc4ccccc4c3nc2c1` , its growth was 44.2

Reported growth for `CN(C)CCCNc1c2ccc(Cl)cc2nc2c1oc1ccc(Cl)cc12` was 2.92

Short answer for `Cn1c(SCC(=O)Nc2ccc(-c3nc4ccc([N+](=O)[O-])cc4[nH]3)cc2)nc2ccccc2c1=O` : growth was 88.9

growth recorded for this compound, `C=CCn1c(SCC(=O)c2ccccc2)nnc1-c1c[nH]c2ccccc12` , is 97.4

Form: compound = `COc1ccc(N/N=C/c2c(-c3ccc(S(C)(=O)=O)cc3)nc3ccccn23)cc1` ; growth = 34

Quick note, growth for `CC(=O)Oc1ccccc1C(=O)Nc1ccc(C(=O)/C=C/c2cccs2)cc1` landed at 106

The compound `O=C(CSc1nc2sc3c(c2c(=O)n1-c1ccc(Cl)cc1)CCCC3)NNC(=O)Nc1ccc(Cl)c(C(F)(F)F)c1` showed growth equal to 61

In plain terms, `CS(=O)(=O)Nc1ccc(-c2nn(-c3ccc(S(C)(=O)=O)cc3)cc2/C=C/C(=O)c2ccc(NC(=O)CO[N+](=O)[O-])cc2)cc1` has a documented growth of 97.3

The compound `COc1ccc(/C=C2\SC(=Nc3cc(C)on3)NC2=O)cc1` showed growth equal to 98.6

Field growth (entry `CNC(=O)c1cc(-c2ccc(NC(=O)Nc3ccc(N4CCN(C)CC4)c(C(F)(F)F)c3)cc2)nc2cccnc12` ) reads -21.6

`NS(=O)(=O)c1ccc(Nc2nc(Nc3ccccc3)nc(-n3nc(-c4ccccc4)cc3-c3ccccc3)n2)cc1` has a reported growth of 45

Looking up `Cc1nc2cnc(N)c(C#Cc3cncc(C(=O)Nc4ccc(Cl)c(C(F)(F)F)c4)c3)c2nc1C` , I found its growth recorded as 63.9

// `N[C@@H](Cc1cn(-c2ccnc3ccccc23)nn1)C(=O)O` : growth value = 103

For record `Clc1ccc2c(NCCCn3ccnc3)c3oc4ccccc4c3nc2c1` the listed growth is 45

Measured growth, `CN(C)c1ccc(/C=c2\sc3nc4ccccc4n3c2=O)cc1` : 107

Summary for this compound, `c1ccc(CNc2ncnc3ccc(-c4cnc5[nH]ncc5c4)cc23)cc1` : growth is 81.9

growth recorded for this compound, `CS(=O)(=O)c1ccc(-n2cc(/C=C/C(=O)c3ccc(NC(=O)CO[N+](=O)[O-])cc3)c(-c3ccc(Cl)cc3)n2)cc1` , is 94.4
